These data points were gathered from ChEMBL document CHEMBL3407466.

method notes: Clearance in Sprague-Dawley rat at 1 mg/kg, iv administered as infusion over 30 mins
Type: ADME, organism-based
Set-up: dose 1 mg/kg, route intravenous
run parameters: in vivo
outcome measure: clearance (mL/min/kg)
I only need the number, in mL/min/kg, no unit after it.

clearance measured on Cc1cn2nc([C@@H]3CCCCN3C(=O)c3cc(Cl)ccc3NS(C)(=O)=O)cc2nc1N1CC[C@H](N)C1 [PRESATOVIR] = 32.2

====

method notes: Lipophilicity, log D of the compound by chromatography
Format: physicochemical
This section presents molecules with their documented chromatographic logD values.

Completed entries (count: 3):
smi: Cc1[nH]c2cc([C@@H]3CCCCN3C(=O)c3cc(F)ccc3NS(C)(=O)=O)nn2c(=O)c1C
outcome measure: chromatographic logD
recorded measurement: 1.4
--
smi: Cc1[nH]c2cc([C@@H]3CCCCN3C(=O)c3c(Cl)cccc3NS(C)(=O)=O)nn2c(=O)c1C
outcome measure: chromatographic logD
recorded measurement: 1.8
--
smi: Cc1[nH]c2cc([C@@H]3CCCCN3C(=O)c3cc(C(F)(F)F)ccc3NS(C)(=O)=O)nn2c(=O)c1C
outcome measure: chromatographic logD
recorded measurement: 1.9

chromatographic logD measured on Cc1cn2nc([C@@H]3CCCCN3C(=O)c3cc(Cl)ccc3NS(C)(=O)=O)cc2nc1N1CC(O)C1 = 2.7

chromatographic logD measured on Cc1ccc(NS(C)(=O)=O)c(C(=O)N2CCCC[C@H]2c2cc3nc(C4CC4)cc(C)n3n2)c1 = 3.5

chromatographic logD measured on Cc1ccc(NS(C)(=O)=O)c(C(=O)N2CCCC[C@H]2c2cc3nc(C4CC4)ccn3n2)c1 = 3.7

chromatographic logD measured on Cc1cn2nc([C@@H]3CCCCN3C(=O)c3cc(Cl)ccc3NS(C)(=O)=O)cc2nc1N1CCC(F)(F)C1 = 4.2

chromatographic logD measured on Cc1cn2nc([C@@H]3CCCCN3C(=O)c3cc(Cl)ccc3NS(C)(=O)=O)cc2nc1N1CCC1 = 3.8

chromatographic logD measured on Cc1[nH]c2cc([C@@H]3CCCCN3C(=O)c3cc(Br)ccc3NS(C)(=O)=O)nn2c(=O)c1C = 2

chromatographic logD measured on Cc1cn2nc([C@@H]3CCCCN3C(=O)c3cc(Cl)ccc3NS(C)(=O)=O)cc2nc1N1CC(F)C1 = 3.7
